The values you see were collected from patent US20200157217A1.

Items are presented alongside their recorded koff.
Tested Target: T1, human CD3 Gamma/Epsilon Fc fusion protein (human, UniProt P09693 23-116; P07766 23-126)
T1 construct: Construct limits and Fc are not described; also called Gamma-Epsilon Fc (KnH)
T1 sequence (P09693 23-116, chain 1 of 2): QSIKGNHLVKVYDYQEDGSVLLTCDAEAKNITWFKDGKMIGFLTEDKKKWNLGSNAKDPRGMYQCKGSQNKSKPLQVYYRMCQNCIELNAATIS
T1 sequence (P07766 23-126, chain 2 of 2): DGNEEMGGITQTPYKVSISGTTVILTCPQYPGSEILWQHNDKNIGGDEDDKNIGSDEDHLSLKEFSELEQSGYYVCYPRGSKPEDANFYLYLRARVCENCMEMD
Protocol Text: Octet (bio-layer interferometry), bivalent kdis; antigen printed 'Human δ/γ - Fc', taken as the Gamma/Epsilon Fc that paragraph 95 names for FIG. 8
Could you give me the number in s⁻¹? Just the number is fine.

Binder	Units Of Measure	koff
480C8 chimeric rabbit/human IgG antibody (antibody, V domains shown, also called 48008) VH: QSLEESGGRLVTPGTPLTLTCTVSGIDLSSNAMSWVRQAPGKGLEWIGVITGRDITYYASWAKGRFTISKTSSTTVDLKMTSLTAEDSATYFCARDGGSSAINSKNIWGQGTLVTVSS VL: DVVMTQTPSSVSAAVGGTVTINCQASESISSWLAWYQQKPGQPPKLLIYEASKLASGVPSRFSGSGSGTEFTLTISDLECADAATYYCQGYFYFISRTYVNAFGGGTEVEFKR	s⁻¹	0.00054

What value of koff has been recorded for this entry: 299F6 chimeric rabbit/human IgG antibody (antibody, V domains shown) VH: QSLEESGGRLVTPGTPLTLTCTVSGFTISSNAMSWVRQAPGKGLEWIGVITGRDITYYANWAKGRFTISKTSSTTVDLKMTSLTAEDSATYFCARDGGSSAITSNNIWGPGTLVTVSS VL: DVVMTQTPSSVSAAVGGTVTINCQASESISSWLAWYQQKPGQPPKLLIYEASKLASGVPSRFSGSGSGTEFTLTISDLECADAATYYCQGYFYFISRSYVNAFGGGTEVVFKR
0.00045

Same question, 295E9 chimeric rabbit/human IgG antibody (antibody, V domains shown) VH: QSLEESGGRLVTPGTPLTLTCTVSGIDLSSNAMSWVRQAPGKGLEWIGVITGRDINYYASWAKGRFTISKTSSTTVDLKMTSLTAEDSATYFCARDGGSSAITSKNIWGPGTLVTVSS VL: DVVMTQTPASVEAAVGGTVTINCQASESISSWLAWYQQRPGQPPKLLIYEASKLASGVPSRFKGSGSGTEFTLTISDLECADAATYYCQGYFYFISRSYVNAFGGGTEVVVKR this time
0.0052
